B1: BBSome complex member BBS2 (Homo sapiens), Q9BXC9 (parent)
chain: MLLPVFTLKLRHKISPRMVAIGRYDGTHPCLAAATQTGKVFIHNPHTRNQHVSASRVFQSPLESDVSLLSINQAVSCLTAGVLNPELGYDALLVGTQTNLLAYDVYNNSDLFYREVADGANAIVLGTLGDISSPLAIIGGNCALQGFNHEGSDLFWTVTGDNVNSLALCDFDGDGKKELLVGSEDFDIRVFKEDEIVAEMTETEIVTSLCPMYGSRFGYALSNGTVGVYDKTSRYWRIKSKNHAMSIHAFDLNSDGVNELITGWSNGKVDARSDRTGEVIFKDNFSSAIAGVVEGDYRMDGHIQLICCSVDGEIRGYLPGTAEMRGNLMDTSAEQDLIRELSQKKQNLLLELRNYEENAKAELASPLNEADGHRGIIPANTRLHTTLSVSLGNETQTAHTELRISTSNDTIIRAVLIFAEGIFTGESHVVHPSIHNLSSSICIPIVPPKDVPVDLHLKAFVGYRSSTQFHVFESTRQLPRFSMYALTSLDPASEPISYVNFTIAERAQRVVVWLGQNFLLPEDTHIQNAPFQVCFTSLRNGGHLHIKIKLSGEITINTDDIDLAGDIIQSMASFFAIEDLQVEADFPVYFEELRKVLVKVDEYHSVHQKLSADMADHSNLIRSLLVGAEDARLMRDMKTMKSRYMELYDLNRDLLNGYKIRCNNHTELLGNLKAVNQAIQRAGRLRVGKPKNQVITACRDAIRSNNINTLFKIMRVGTASS
partner: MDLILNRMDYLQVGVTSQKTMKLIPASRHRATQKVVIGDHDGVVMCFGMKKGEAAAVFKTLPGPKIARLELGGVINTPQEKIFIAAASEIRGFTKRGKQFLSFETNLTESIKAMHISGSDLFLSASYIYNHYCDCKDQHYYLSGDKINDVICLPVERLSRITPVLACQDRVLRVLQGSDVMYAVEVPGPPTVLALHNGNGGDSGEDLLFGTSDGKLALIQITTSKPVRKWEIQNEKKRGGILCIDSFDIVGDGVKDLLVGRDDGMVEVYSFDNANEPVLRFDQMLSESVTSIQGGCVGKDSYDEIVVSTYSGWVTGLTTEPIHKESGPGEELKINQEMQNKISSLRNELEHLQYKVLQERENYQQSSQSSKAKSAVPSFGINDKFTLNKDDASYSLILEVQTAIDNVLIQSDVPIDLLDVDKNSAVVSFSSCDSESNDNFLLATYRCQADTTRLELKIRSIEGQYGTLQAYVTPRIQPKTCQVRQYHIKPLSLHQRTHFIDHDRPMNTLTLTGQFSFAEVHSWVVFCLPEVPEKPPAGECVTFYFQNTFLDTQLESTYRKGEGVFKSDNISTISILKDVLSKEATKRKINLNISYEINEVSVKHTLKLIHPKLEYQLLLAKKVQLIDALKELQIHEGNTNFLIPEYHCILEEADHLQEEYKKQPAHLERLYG

Variants of: B1
Conditions: with BBS7, Q8IWZ6-2
measured parameter: effect of a mutation on the interaction

N664E : with no effect
D601K : with no effect
Q468E : with no effect
S474K : with no effect
V716K : with no effect

Could you report effect of a mutation on the interaction for every entry in the following list?
1. T381A
2. L402E
3. I546A
4. S332K
5. D616A
6. N408K

["with no effect", "with no effect", "with no effect", "with no effect", "with no effect", "with no effect"]

meta.source: IntAct's records for PubMed 29039417
